Would you kindly list melting point for each of these compounds?

// field: melting point; key: Cn1c(=O)c2ccc(OCCO)cc2n2nc(-c3ccnc(C(F)(F)F)c3)cc12 ; value = 128 to 134 °C

In plain terms, COCCn1c(=O)c2ccccc2n2nc(-c3ccnc(C(F)(F)F)c3)cc12 has a documented melting point of 165 to 174 °C

Looking up Cn1c(=O)c2ccc(C3CCCC3)cc2n2nc(-c3ccnc(C(F)(F)F)c3)cc12 , I found its melting point recorded as 246 to 250 °C

Summary for this compound, COc1cccc2c(=O)n(C)c3cc(-c4ccnc(C(F)(F)F)c4)nn3c12 : melting point is > 250 °C

Reported melting point ( Cn1c(=O)c2ccc(N3CC(O)C3)cc2n2nc(-c3ccnc(C(F)(F)F)c3)cc12 ) = > 250 °C
